pIC50: recorded values
- tested.target: CD73 (Homo sapiens)
- Sequence (P21589 27-549): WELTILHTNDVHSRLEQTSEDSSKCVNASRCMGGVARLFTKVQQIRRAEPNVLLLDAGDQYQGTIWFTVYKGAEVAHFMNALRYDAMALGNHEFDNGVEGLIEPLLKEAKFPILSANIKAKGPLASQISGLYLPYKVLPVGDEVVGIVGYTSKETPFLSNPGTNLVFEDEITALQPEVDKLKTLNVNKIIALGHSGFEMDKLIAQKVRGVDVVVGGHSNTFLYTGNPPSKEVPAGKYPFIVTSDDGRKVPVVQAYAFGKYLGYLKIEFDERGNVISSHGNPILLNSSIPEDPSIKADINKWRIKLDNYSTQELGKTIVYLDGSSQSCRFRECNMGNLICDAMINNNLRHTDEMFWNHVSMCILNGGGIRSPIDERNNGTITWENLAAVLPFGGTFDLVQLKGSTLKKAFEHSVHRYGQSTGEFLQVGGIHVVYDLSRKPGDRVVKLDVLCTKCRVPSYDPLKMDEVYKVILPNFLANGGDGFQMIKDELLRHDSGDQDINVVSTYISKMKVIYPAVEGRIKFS
- test.name: Biochemical assay of CD73 inhibition (Malachite Green)
- measurement.parameters: CD73 0.3208 nM, AMP 15 μM, Tris-HCl pH 7.4, Malachite Green absorbance readout; read-out: CD73_Biochem
pIC50: −log10 of the molar value.
endpoint.label: pIC50

molecule="COC[C@](Cc1nn[nH]n1)(OC[C@H]1O[C@@H](n2ncc3c(NC4CCC4)nc(CO)nc32)[C@H](O)[C@@H]1O)P(=O)(O)O [Example 9]" tested_target="CD73 (Homo sapiens)" value_measured="≥ 8.00"
molecule="O=P(O)(O)C(CO)(Cc1nn[nH]n1)OC[C@H]1O[C@@H](n2ncc3c(NC4CCC4)nc(CO)nc32)[C@H](O)[C@@H]1O (stereo partly drawn) [Example 17]" tested_target="CD73 (Homo sapiens)" value_measured="≥ 8.00"
molecule="O=P(O)(O)[C@@](CO)(Cc1nn[nH]n1)OC[C@H]1O[C@@H](n2ncc3c(NCC4CCC4)nc(Cl)nc32)[C@H](O)[C@@H]1O [Example 20]" tested_target="CD73 (Homo sapiens)" value_measured="7.00 to 8.00"

All values here come from patent US11130778B2.
